Attribution: ChEMBL document CHEMBL5252624

- Tested on: Candida albicans
- assayName: Antifungal activity against Candida albicans ATCC SC5314 assessed as fungal growth inhibition in presence of fluconazole by microdilution method
- Type: functional
measuredProperty: MIC80 (µg/mL)
Hi! Could you send only the number? It should be in µg/mL, unit omitted.

Worked cases, MIC80 given:
>>> obsvalue("CCOc1nc2ccccc2cc1/C=C/C(=O)c1ccc(F)cc1")
5.54
>>> obsvalue("Cc1cccc(C)c1Oc1nc2ccccc2cc1/C=C/C(=O)c1ccc([N+](=O)[O-])cc1")
3.07
>>> obsvalue("CN1CCN(c2nc3ccccc3cc2/C=C/C(=O)c2ccc(OC(F)(F)F)cc2)CC1")
4.28
>>> obsvalue("Cc1cccc(C)c1Oc1nc2ccccc2cc1/C=C/C(=O)c1ccc(OC(F)(F)F)cc1")
2.37
>>> obsvalue("CCOc1nc2ccccc2cc1/C=C/C(=O)c1ccc(OC(F)(F)F)cc1")
2.9

Prompt: # query: MIC80 of entry Cc1cccc(C)c1Oc1nc2ccccc2cc1/C=C/C(=O)c1ccc(F)cc1
Completion: 1.17

Prompt: Which MIC80 is reported for this compound? CCN(CC)c1nc2ccccc2cc1/C=C/C(=O)c1ccc(F)cc1
Completion: 1.87

Prompt: May I ask what MIC80 has been recorded for CCOc1nc2ccccc2cc1/C=C/C(=O)c1ccc([N+](=O)[O-])cc1 ?
Completion: 4.96

Prompt: Param item = O=C(/C=C/c1cc2ccccc2nc1N1CCCCC1)c1ccc([N+](=O)[O-])cc1 ; retrieve measured MIC80.
Completion: 5.64

Prompt: For the compound CN1CCN(c2nc3ccccc3cc2/C=C/C(=O)c2ccc([N+](=O)[O-])cc2)CC1 , what MIC80 is on record?
Completion: 4.28
